# System: RPMI8266
# experimental protocol: inhibition of multiple myeloma cell growth, RPMI8266 cells
# Type: cell-based
# test settings: Homo sapiens
Structures can show the parent of a compound that is named as a salt.
observation type: IC50 (µM)
Respond with the bare value in µM.

The molecule identified as Fc1ccc(COc2ccc(CNC3CCCCC3)cc2OCc2ccc(F)cc2)cc1 [XIELP1-12b] registered its IC50 at 1.18

The molecule listed as Cc1ccc(COc2ccc(CNCC3CCCCC3)cc2OCc2ccc(C)cc2)cc1 [XIELP1-25b] has a reported IC50 of 0.92

The recorded IC50 for entry `Fc1ccc(COc2cc(CNCC3CCCCC3)cc(OCc3ccc(F)cc3F)c2)c(F)c1` equals 1.4

Just so you know, measured IC50 for `Fc1ccc(COc2cc(CNC3CCCCC3)cc(OCc3ccc(F)cc3F)c2)c(F)c1` came out at 1.33

IC50 for Fc1ccc(COc2ccc(CNCC3CCCCC3)cc2OCc2ccc(F)cc2)cc1 [XIELP1-106, Hydrochloride] is 0.72

Item: Cc1ccc(COc2ccc(CNCCO)cc2OCc2ccc(C)cc2)cc1 [XIELP1-24b] | IC50: 0.63

// field: IC50; key: Fc1ccc(COc2ccc(CNCC3CCCCC3)cc2OCc2ccc(F)cc2F)c(F)c1 [XIELP1-17b] ; value = 0.94

Consider `Cc1ccc(COc2ccc(CNC3CCCCC3)cc2OCc2ccc(C)cc2)cc1` . Its measured IC50 is 1.83

Lab note: Fc1ccc(COc2ccc(CNC3CCCCC3)cc2OCc2ccc(F)cc2F)c(F)c1 [XIELP1-20a] gave IC50 of 1.13

====

# System: MM1S
# experimental protocol: inhibition of multiple myeloma cell growth, MM1S cells
# Type: cell-based
# test settings: Homo sapiens, MM1.S
Counter-ions that a name gives are not always drawn.
observation type: IC50 (µM)
Give just the number in µM; leave the unit off.

For Cc1ccc(COc2ccc(CNCC3CCCCC3)cc2OCc2ccc(C)cc2)cc1 [XIELP1-25b] on MM1S, measured IC50 was 1.51

`Cc1ccc(COc2ccc(CNC3CCCCC3)cc2OCc2ccc(C)cc2)cc1` tested on MM1S gave IC50: 5.36

Bench note, MM1S: entry `Fc1ccc(COc2cc(CNCC3CCCCC3)cc(OCc3ccc(F)cc3F)c2)c(F)c1` , its IC50 = 2.5

Case Fc1ccc(COc2ccc(CNCC3CCCCC3)cc2OCc2ccc(F)cc2)cc1 [XIELP1-106, Hydrochloride] , MM1S, IC50 recorded as 2.46

====

Provide the reported IC50 of each item.
# Tested on: MM1S
# experimental protocol: inhibition of multiple myeloma cell growth, MM1S cells
# Type: cell-based
# test settings: Homo sapiens, MM1.S
Answer in µM, number only, no unit symbol.

// IC50 lookup, compound = `Fc1ccc(COc2cc(CNC3CCCCC3)cc(OCc3ccc(F)cc3F)c2)c(F)c1` , result: 2.51

IC50 recorded for this compound, Fc1ccc(COc2ccc(CNC3CCCCC3)cc2OCc2ccc(F)cc2)cc1 [XIELP1-12b] , is 1.77

Notebook: Fc1ccc(COc2ccc(CNC3CCCCC3)cc2OCc2ccc(F)cc2F)c(F)c1 [XIELP1-20a] , IC50 read as 2.53

The reported IC50 of the compound Fc1ccc(COc2ccc(CNCC3CCCCC3)cc2OCc2ccc(F)cc2F)c(F)c1 [XIELP1-17b] was 0.84

response.value for Cc1ccc(COc2ccc(CNCCO)cc2OCc2ccc(C)cc2)cc1 [XIELP1-24b] (field: IC50) = 2.56
